# System: A. baumannii #3
# procedure_details: microbe, parasite or virus in culture
# protocol_conditions: A. baumannii #3 isolated from patient; broth microdilution, 37 °C, 18 h; three independent experiments
Where no end group is shown, it is not given here.
The entries below are paired with their reported MIC.
API: value field is a number in µM; no unit string.

| substance | MIC [µM] |
| --- | --- |
| GILGKLWEGVKSIF-NH2 [Hp1404, reference compound] | 3.13 |
| GILGKLWEGVKSIW-NH2 [Hp1404-W] | 3.13 |
| GILGKLWEGVKSIL-NH2 [Hp1404-L] | 3.13 |
| GILGKLWEGVKSII-NH2 [Hp1404-I] | 3.13 |

Next substance, please.
Lookup: # input substance: GILGKLWEGVKSIV-NH2 [Hp1404-V] ; wanted: its MIC
Found: 6.25

----------
# Tested on: HaCaT cells
# protocol_conditions: 50 μM peptide, 24 h, MTT assay
Where no end group is shown, it is not given here.
readout_kind: Cell viability (%)
Could you give me the number in %? Just the number is fine.

Sample records with Cell viability:
| substance | measure_unit | Cell viability |
| --- | --- | --- |
| GILGKLWEGVKSII-NH2 [Hp1404-I] | % | 100 |
| GILGKLWEGVKSIL-NH2 [Hp1404-L] | % | 62.4 |
| GILGKLWEGVKSIV-NH2 [Hp1404-V] | % | 100 |
| GILGKLWEGVKSIA-NH2 [Hp1404-A] | % | 100 |
| GILGKLWEGVKSIW-NH2 [Hp1404-W] | % | 100 |

Lookup: Which Cell viability reading was recorded for the substance GILGKLWEGVKSIF-NH2 [Hp1404, reference compound] ?
Found: 72.3

----------
# Test system: mouse red blood cells
# procedure_details: Hemolytic assay
# Assay type: cell-based
# protocol_conditions: 50 μM peptide (highest tested concentration); 8% mouse red blood cells in PBS, 1 h, 37 °C, absorbance 414 nm, vs 0.1% Triton X-100
Where no end group is shown, it is not given here.
readout_kind: hemolytic activity

| substance | obs_value |
| --- | --- |
| GILGKLWEGVKSIA-NH2 [Hp1404-A] | no hemolytic activity |
| GILGKLWEGVKSIV-NH2 [Hp1404-V] | no hemolytic activity |
| GILGKLWEGVKSIK-NH2 [Hp1404-K] | no hemolytic activity |
